The measured values listed here are drawn from PubChem BioAssay AID504332.

Molecular target: Histone-lysine N-methyltransferase EHMT2 (Homo sapiens)
Experiment: qHTS Assay for Inhibitors of Histone Lysine Methyltransferase G9a; note: nearly all actives have a fitted effect of over 75% in size
Settings: G9a H3K9 monomethylation, AlphaScreen, 2 h; series mostly up to 59 µM
In all, about 350,000 compounds went through this assay and about 31,000 (8.9%) were called active. Roughly 15% stayed inconclusive and do not appear here. Calls come from the whole dose curve; as a rule, active = well fitted inhibition curve with a large enough effect; inconclusive = small, poorly fitted or top-dose-only effect; inactive = no such curve, though single readings can be large or run the other way. Shown is part of a subset that was picked to be rich in actives.
Log the outcome using a class from yes (1) = active, no (0) = inactive

Problem: Please share the test call associated with Cc1oc2ccc(O)c(CN3CCCCC3)c2c1C(=O)Nc1cccc(C(F)(F)F)c1 .
Solution: no (0)

Problem: Please share the test call associated with CCN(CC)c1ccc(NS(=O)(=O)c2cc(-c3cc(C)no3)ccc2C)c(C)c1 .
Solution: yes (1)

Problem: Please share the test call associated with CCOc1ccc(NC(=O)C(=O)NCCc2csc3nc(-c4ccccc4F)nn23)cc1 .
Solution: no (0)

Problem: Please share the test call associated with CC(C)OC(=O)C(C#N)c1nc2ccccc2nc1N1CCN(Cc2ccccc2)CC1 (centres undefined) .
Solution: no (0)

Problem: Please share the test call associated with Cc1ccc(N2C(=O)c3ccccc3C2(O)c2ncc[nH]2)cc1 (centres undefined) .
Solution: yes (1)

Problem: Please share the test call associated with COc1cc(NC(=O)c2noc3c2CSc2ccccc2-3)cc(OC)c1OC .
Solution: yes (1)

Problem: Please share the test call associated with Cc1ccc(NC(=O)CCN2C(=O)c3ccccc3C2=O)cc1C .
Solution: no (0)

Problem: Please share the test call associated with Cc1ccc(-n2ccc(=O)c(C(=O)O)n2)cc1 .
Solution: no (0)

Problem: Please share the test call associated with Cc1nc2ccc(NC(=S)N3CCC(C)CC3)cc2nc1C .
Solution: yes (1)

Problem: Please share the test call associated with Cc1cc(-c2ccc(C)c(S(=O)(=O)Nc3ccc(S(N)(=O)=O)cc3)c2)on1 .
Solution: no (0)

Problem: Please share the test call associated with COc1cc(NC(=O)c2nc3ccccc3nc2C)cc(OC)c1OC .
Solution: no (0)

Problem: Please share the test call associated with COc1cc(C=O)c(Br)cc1OCC(=O)NCc1ccccc1 .
Solution: no (0)

Problem: Please share the test call associated with Oc1ccc(C2Nc3cccc4cccc(c34)N2)cc1 .
Solution: yes (1)

Problem: Please share the test call associated with O=c1c2cc(Br)ccc2nc(-c2cccc(Cl)c2)n1O .
Solution: no (0)

Problem: Please share the test call associated with Cc1cccc(NC(=O)CSc2nc3c([nH]c4ccccc43)c(=O)n2-c2cc(C)cc(C)c2)c1 .
Solution: no (0)

Problem: Please share the test call associated with CC(=O)Nc1ccc(C(=O)N(C2=NC(C)CS2)c2ccc(Cl)cc2)cc1 (centres undefined) .
Solution: no (0)

Problem: Please share the test call associated with FC(F)(F)Oc1ccc(NC(=S)NCc2ccccc2)cc1 .
Solution: no (0)

Problem: Please share the test call associated with CCc1ccc2oc(-c3ccc(C)c(NC(=O)/C=C/c4ccco4)c3)nc2c1 .
Solution: no (0)

Problem: Please share the test call associated with COc1ccc(CCNC(=O)c2nn(C)c3c2CSc2ccccc2-3)cc1OC .
Solution: no (0)

Problem: Please share the test call associated with Cc1ccc(C2CC(c3cccc(C)c3)n3nc(N)nc3N2)cc1 (centres undefined) .
Solution: no (0)

Problem: Please share the test call associated with COc1ccccc1Nc1ncc(C(C)=O)c(C)n1 .
Solution: no (0)

Problem: Please share the test call associated with Cc1ccnc(NC(=O)C(C)N2C(=O)c3ccccc3C2=O)c1 (centres undefined) .
Solution: no (0)

Problem: Please share the test call associated with O=C(CC1SC(=Nc2ccccc2)N(Cc2ccccn2)C1=O)Nc1cccc(Cl)c1 (centres undefined) .
Solution: yes (1)

Problem: Please share the test call associated with O=C(/C=C/c1ccco1)Nc1cccc(-c2nc3ccccc3[nH]2)c1 .
Solution: yes (1)

Problem: Please share the test call associated with CS(=O)(=O)c1sc(C(=O)NC(=S)Nc2ccc(OC(F)(F)F)cc2)c2c1C=CCC2 .
Solution: yes (1)

Problem: Please share the test call associated with O=C(Nc1cccc(Cl)c1)OCc1ccccn1 .
Solution: no (0)

Problem: Please share the test call associated with Cc1cc2c(cc1C)N(C(=O)CN1C(=O)c3ccccc3C1=O)C(C)(C)c1ssc(=S)c1-2 .
Solution: yes (1)

Problem: Please share the test call associated with CCOc1ccc(CN2CCCN(C)CC2)cc1 .
Solution: yes (1)

Problem: Please share the test call associated with CCCCc1ccc(NC(=O)CN2C(=O)NC(Cc3ccccc3)C2=O)cc1 (centres undefined) .
Solution: no (0)

Problem: Please share the test call associated with CCOc1cc(CNC(=O)c2sc3ncnc(N(C)C4CCCCC4)c3c2C)ccc1OC .
Solution: no (0)

Problem: Please share the test call associated with CN(CC(=O)Nc1cccc(C(F)(F)F)c1)S(=O)(=O)c1cccs1 .
Solution: no (0)

Problem: Please share the test call associated with C=C(C)C1CC=C(C)/C(=N/NC(=O)CCCNc2cccc(C)c2)C1 (centres undefined) .
Solution: no (0)

Problem: Please share the test call associated with CCN(CC(=O)Nc1ccccc1C(F)(F)F)C(=O)C1CCN(C(=O)Nc2ccccc2)CC1 .
Solution: no (0)

Problem: Please share the test call associated with Cc1ccc2nc(COc3cccc(NC(=O)c4cccc(Cl)c4)c3)cc(=O)n2c1 .
Solution: no (0)

Problem: Please share the test call associated with Cc1ccc(S(=O)(=O)c2c(Nc3cccc(Cl)c3)sc(C(=O)c3ccc4c(c3)OCO4)c2N)cc1 .
Solution: no (0)

Problem: Please share the test call associated with CCOc1ccc(C2C(C(=O)Nc3ccc(Cl)cc3)=C(C)Nc3nc(C(F)(F)F)nn32)cc1 (centres undefined) .
Solution: no (0)

Problem: Please share the test call associated with CCOC(=O)C1=C(O)/C(=C/c2cc(C)n(-c3ccccc3)c2C)N=C1C .
Solution: yes (1)

Problem: Please share the test call associated with CCCC[C@H]1C(=O)N(c2ccccc2)N(c2ccc(O)cc2)C1=O .
Solution: yes (1)

Problem: Please share the test call associated with CCN(c1ccccc1)S(=O)(=O)c1cc(C(=O)NCc2ccccn2)ccc1C .
Solution: no (0)

Problem: Please share the test call associated with O=C(O)CC1S/C(=N\N=C/c2ccccc2O)N(c2ccc(O)cc2)C1=O (centres undefined) .
Solution: no (0)

Problem: Please share the test call associated with CCOc1ccccc1CNS(=O)(=O)c1cc(-c2cc(C)no2)ccc1C .
Solution: no (0)

Problem: Please share the test call associated with Cc1ccccc1C(=O)NCc1nc(-c2ccc(Cl)cc2)no1 .
Solution: no (0)

Problem: Please share the test call associated with COc1ccc(C2CC(c3ccc(C)cc3)Nc3nc(N)nn32)cc1 (centres undefined) .
Solution: no (0)

Problem: Please share the test call associated with COc1cc(C(=S)NCc2ccccc2)cc(Br)c1O .
Solution: yes (1)

---

Molecular target: Histone-lysine N-methyltransferase EHMT2 (Homo sapiens)
Experiment: qHTS Assay for Inhibitors of Histone Lysine Methyltransferase G9a; note: nearly all actives have a fitted effect of over 75% in size; for activity, negative = inhibition: % is set by controls: 0 for no effect and ±100 for the full control effect
Details: G9a H3K9 monomethylation, AlphaScreen, 2 h; series mostly up to 59 µM
The campaign covered roughly 350,000 compounds. About 31,000 (8.9%) were called active. Not shown: some 15% with an inconclusive outcome. Many of the other results were omitted from the sample, so actives are more common in it than they were.
readout: activity, negative = inhibition

Measured activity, negative = inhibition (Histone-lysine N-methyltransferase EHMT2 (Homo sapiens)), entry CCN(CC(=O)Nc1c(F)cccc1F)C(=O)CN1c2cccc3cccc(c23)S1(=O)=O : 5.18% [at 0.501 µM] (inactive)

Measured activity, negative = inhibition (Histone-lysine N-methyltransferase EHMT2 (Homo sapiens)), entry COC(=O)[C@@]12CCCN1[C@H](c1ccc(-c3ccc(F)cc3)c(OC)c1)[C@H]1C(=O)N(C)C(=O)[C@H]12 : 17.2% [at 2.33 µM] (inactive)

Measured activity, negative = inhibition (Histone-lysine N-methyltransferase EHMT2 (Homo sapiens)), entry CCc1nc(N2CCN(c3nc(C)cc(C)n3)CC2)c2oc3ccccc3c2n1 : 2.59% [at 2.33 µM] (inactive)

Measured activity, negative = inhibition (Histone-lysine N-methyltransferase EHMT2 (Homo sapiens)), entry CC(=O)Nc1ccc(S(=O)(=O)N2CCN(CCCOc3cc(C)ccc3C)CC2)cc1 : -3.97% [at 12.7 µM] (inactive)

Measured activity, negative = inhibition (Histone-lysine N-methyltransferase EHMT2 (Homo sapiens)), entry O=C(NCCC1CCCCN1S(=O)(=O)c1ccccc1)C(=O)NCC1CCCO1 (stereo not given) : 10.2% [at 0.501 µM] (inactive)

---

Molecular target: Histone-lysine N-methyltransferase EHMT2 (Homo sapiens) (UniProt Q96KQ7)
Sequence (Q96KQ7 913-1193 limits assumed): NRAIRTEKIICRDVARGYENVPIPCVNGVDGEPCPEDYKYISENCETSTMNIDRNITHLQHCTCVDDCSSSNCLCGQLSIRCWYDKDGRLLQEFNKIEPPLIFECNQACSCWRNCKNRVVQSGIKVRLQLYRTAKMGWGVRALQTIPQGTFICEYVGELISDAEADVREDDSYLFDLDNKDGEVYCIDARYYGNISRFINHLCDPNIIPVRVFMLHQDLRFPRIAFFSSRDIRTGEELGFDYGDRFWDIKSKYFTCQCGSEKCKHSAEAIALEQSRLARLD
Test: qHTS Assay for Inhibitors of Histone Lysine Methyltransferase G9a; note: nearly all actives have a fitted effect of over 75% in size; for activity, negative = inhibition: % is set by controls: 0 for no effect and ±100 for the full control effect
Conditions: G9a H3K9 monomethylation, AlphaScreen, 2 h; series mostly up to 59 µM
Among all 350,000 compounds or so, about 31,000 (8.9%) were called active. About 15% were inconclusive and are not listed. Shown is part of a subset that was picked to be rich in actives.
readout: activity, negative = inhibition

The compound listed as COC(=O)c1cc(-c2cccs2)nc2ccccc12 has a reported activity, negative = inhibition of 17% [at 2.33 µM] (inactive)

The compound listed as O=C(c1cn(-c2ccccc2)nc1-c1cccnc1)N1CCN(S(=O)(=O)c2ccccc2F)CC1 has a reported activity, negative = inhibition of -2.44% [at 12.7 µM] (inactive)

The compound listed as CCOc1ccc(NS(=O)(=O)c2ccc(C(=O)NC3CCN(Cc4ccccc4)CC3)cc2)cc1 has a reported activity, negative = inhibition of 17.4% [at 2.33 µM] (inactive)

The compound listed as Cc1ccc(F)cc1NC(=O)CSCc1c(C)noc1C has a reported activity, negative = inhibition of 28% [at 12.7 µM] (inactive)

The compound listed as NS(=O)(=O)c1ccc(CNC(=O)c2cccc(S(=O)(=O)N3CCc4ccccc43)c2)cc1 has a reported activity, negative = inhibition of 15.2% [at 2.33 µM] (inactive)

The compound listed as O=C(Nc1ccc2c(c1)OCO2)C1CC1(Cl)Cl (stereo unspecified) has a reported activity, negative = inhibition of 2.4% [at 12.7 µM] (inactive)

The compound listed as COc1ccc(C(=O)Nc2ccccc2C(=O)N/N=C/c2ccc(O)c(OC)c2)cc1 has a reported activity, negative = inhibition of -4.54% [at 2.33 µM] (inactive)

The compound listed as CCN(C(=O)CSc1nc(N)cc(=O)[nH]1)C1CCS(=O)(=O)C1 (stereo unspecified) has a reported activity, negative = inhibition of 6.8% [at 12.7 µM] (inactive)

The compound listed as COc1ccc(OC)c(NC(=O)CSc2nc3cccnc3n2C)c1 has a reported activity, negative = inhibition of -2.8% [at 12.7 µM] (inactive)

The compound listed as O=C(NCC1CCCO1)c1cc2c(s1)CCCC2 (stereo unspecified) has a reported activity, negative = inhibition of 29.8% [at 12.7 µM] (inactive)

The compound listed as O=C(NNC(=O)C1CCC1)c1ccccc1 has a reported activity, negative = inhibition of 24.7% [at 12.7 µM] (inactive)
